- measured-on: UniProtKB P13726
- Sequence (P13726 whole entry): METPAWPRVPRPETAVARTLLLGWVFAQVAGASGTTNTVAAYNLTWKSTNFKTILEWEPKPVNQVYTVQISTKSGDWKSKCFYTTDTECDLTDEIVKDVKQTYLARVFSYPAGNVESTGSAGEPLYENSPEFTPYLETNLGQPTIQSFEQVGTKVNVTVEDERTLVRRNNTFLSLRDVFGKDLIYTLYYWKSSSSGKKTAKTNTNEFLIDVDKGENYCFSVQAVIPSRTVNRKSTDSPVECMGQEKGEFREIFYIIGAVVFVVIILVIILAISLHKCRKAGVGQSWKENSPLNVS
- procedure-details: Inhibition of LPS-induced tissue factor procoagulant activity in human THP1 cells preincubated for 1 hr followed by LPS addition measured after 5 hrs using factor 10a chromogenic substrate in presence of prothrombin complex
pIC50: −log10 of the molar value.
Threshold check on pIC50: at or above 10 gives Y, strictly below gives N.

Some entries whose results are on file:
>>> class_label("CC1(C)CC[C@]2(C(=O)O)CC[C@]3(C)C(=CC[C@@H]4[C@@]5(C)CC[C@H](O)[C@@](C)(CO)[C@@H]5CC[C@]43C)[C@@H]2C1 [4-Epi-Hederagenin]")
"N"
>>> class_label("CC1(C)CC[C@]2(C(=O)O)CC[C@]3(C)C(=CC[C@@H]4[C@@]5(C)CC[C@H](O)C(C)(C)[C@@H]5CC[C@]43C)[C@@H]2C1")
"N"
>>> class_label("CC1(C)CC[C@]2(C(=O)O)CC[C@]3(C)C(=CC[C@@H]4[C@@]5(C)CC[C@H](O)[C@](C)(CO)[C@@H]5CC[C@]43C)[C@@H]2C1")
"N"
>>> class_label("CC1(C)CC[C@]2(C(=O)O[C@@H]3O[C@H](CO)[C@@H](O)[C@H](O)[C@H]3O)[C@H](O)C[C@]3(C)C(=CC[C@@H]4[C@@]5(C)CC[C@H](O)C(C)(C)[C@@H]5CC[C@]43C)[C@@H]2C1")
"N"
>>> class_label("C=C(C)[C@@H]1CC[C@]2(C(=O)O[C@@H]3O[C@H](CO)[C@@H](O)[C@H](O)[C@H]3O)CC[C@]3(C)C(CC[C@@H]4[C@@]5(C)CC[C@H](O)[C@@](C)(CO)[C@@H]5CC[C@]43C)[C@H]12 (stereo partly drawn)")
"Y"
>>> class_label("CC1(C)CC[C@]2(C(=O)OCc3ccccc3)CC[C@]3(C)C(=CC[C@@H]4[C@@]5(C)CC[C@H](O)C(C)(C)[C@@H]5CC[C@]43C)[C@@H]2C1")
"N"
>>> class_label("C=C(C)[C@@H]1CC[C@]2(C(=O)O)CC[C@]3(C)C(CC[C@@H]4[C@@]5(C)CC[C@H](O)[C@@](C)(CO)[C@@H]5CC[C@]43C)[C@H]12 (stereo partly drawn)")
"N"
>>> class_label("CC1(C)CC[C@]2(C(=O)O[C@@H]3O[C@H](CO)[C@@H](O)[C@H](O)[C@H]3O)[C@H](O)C[C@]3(C)C(=CC[C@@H]4[C@@]5(C)CC[C@H](O[C@@H]6O[C@H](CO)[C@@H](O)[C@H](O)[C@H]6O)C(C)(C)[C@@H]5CC[C@]43C)[C@@H]2C1")
"N"

-- ask # bool: pIC50 of CC1(C)CC[C@]2(C(=O)O[C@@H]3O[C@H](CO)[C@@H](O)[C@H](O)[C@H]3O)CC[C@]3(C)C(=CC[C@@H]4[C@@]5(C)CC[C@H](O)C(C)(C)[C@@H]5CC[C@]43C)[C@@H]2C1 >= 10
-- reply Y

-- ask # bool: pIC50 of CC1(C)CC[C@]2(C(=O)O)CC[C@]3(C)C(=CC[C@@H]4[C@@]5(C)CCC(=O)C(C)(C)[C@@H]5CC[C@]43C)[C@@H]2C1 >= 10
-- reply N

-- ask # bool: pIC50 of CC1(C)CC[C@]2(C(=O)O[C@@H]3O[C@H](CO)[C@@H](O)[C@H](O)[C@H]3O)CC[C@]3(C)C(=CC[C@@H]4[C@@]5(C)CC[C@H](O)[C@](C)(CO)[C@@H]5CC[C@]43C)[C@@H]2C1 >= 10
-- reply N

-- ask # bool: pIC50 of CC1(C)CC[C@]2(C(=O)O[C@@H]3O[C@H](CO)[C@@H](O)[C@H](O)[C@H]3O)CC[C@]3(C)C(=CC[C@@H]4[C@@]5(C)CC[C@H](O[C@@H]6O[C@H](CO)[C@@H](O)[C@H](O)[C@H]6O)C(C)(C)[C@@H]5CC[C@]43C)[C@@H]2C1 >= 10
-- reply N

Source of measurements: BindingDB's records for doi:10.1016/j.bmcl.2016.12.066
